All figures here come from ChEMBL document CHEMBL4765378.

Listed compounds paired with reported IC50
Biological target: CDK2/Cyclin A2 (Homo sapiens)
Assay: Inhibition of human CDK2/cyclin A using histone H1 as substrate by ADP-glo assay

{"COMPOUND STRING": "CCCCNc1nc2ccc([N+](=O)[O-])cc2[nH]1", "IC50": "> 10 µM"}

Query compound follows.
Task item: Param request: IC50 | system CDK2/Cyclin A2 (Homo sapiens) | item CCCCNc1nc2cc([N+](=O)[O-])ccc2s1
Reply: > 10 µM

* * *

// pIC50 lookup, one value per entry
Target: Dual specificity tyrosine-phosphorylation-regulated kinase 1A (Rattus norvegicus)
Test: Inhibition of recombinant rat DYRK1A kinase domain (1 to 499 residues) expressed in bacterial expression system using KKISGRLSPIMTEQ as substrate by ADP-glo assay
# pIC50: negative log10 of molar concentration; output just the value

{"COMPOUND STRING": "CCCCNc1nc2cc([N+](=O)[O-])ccc2s1", "TARGET SYSTEM": "Dual specificity tyrosine-phosphorylation-regulated kinase 1A (Rattus norvegicus)", "pIC50": 5.66}

Task item: Report measured pIC50 on Dual specificity tyrosine-phosphorylation-regulated kinase 1A (Rattus norvegicus); entry: CCCCNc1nc2ccc([N+](=O)[O-])cc2[nH]1
Reply: 5.74
